Taken from PubChem BioAssay (Tox21).

Assay: qHTS assay to test for compound auto fluorescence at 535 nm (green) in HepG2 cell free culture (AID 720686)
Conditions: Cell-free medium, green autofluorescence 485/535 nm; series mostly up to 46 µM
Text: U.S. Tox21 Program National Center for Advancing Translational Sciences [NCATS] NIH Chemical Genomics Center [NCGC] U.S. Environmental Protection Agency [EPA] National Institutes of Environmental Health Sciences [NIEHS] National Toxicology Program [NTP] U.S. Food and Drug Administration [FDA] Tox21 Assay Overview: Compound auto fluorescence often interferes with screening of the compound library against various biological targets and signaling pathways. […] This assay includes the green fluorescence data. […]
Calls of active or inactive are those of the source. Calls come from the whole dose curve; as a rule, active = well fitted curve in the direction sought with a large enough effect in the repeat runs; inconclusive = weak or mixed curves; inactive = flat fitted curve, though single readings scatter.
quantity.name: outcome

Record excerpt, results attached:
INSERT INTO results (compound, val) VALUES
  ('CCN(CC)CCOC(=O)c1ccc(N)cc1Cl', 'inactive'),
  ('CN(C)CC/C=C1/c2ccccc2CSc2ccccc21', 'inactive'),
  ('CC[C@]1(O)CC2CN(CCc3c([nH]c4ccccc34)[C@@](C(=O)OC)(c3cc4c(cc3OC)N(C)[C@H]3[C@@](O)(C(N)=O)[C@H](O)[C@]5(CC)C=CCN6CC[C@]43[C@@H]65)C2)C1 (stereo not given in full)', 'inactive'),
  ('CC(CN(C)C)CN1c2ccccc2Sc2ccc(C(F)(F)F)cc21 (stereo not given)', 'inactive');

Here is the next item to consider.
The value of outcome measured for the compound "CC(C)CCC[C@@H](C)[C@H]1CC(=O)C2=C3CC[C@H]4C[C@@H](O)CC[C@]4(C)[C@H]3CC[C@@]21C" turned out to be inactive
